B1: TPR t1 (parent)
chain: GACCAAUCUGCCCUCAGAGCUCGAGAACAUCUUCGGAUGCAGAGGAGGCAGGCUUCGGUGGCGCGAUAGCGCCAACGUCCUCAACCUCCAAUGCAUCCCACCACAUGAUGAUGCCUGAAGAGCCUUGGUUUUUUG

- Variants of: B1
- protocol: polymerase ribozyme fitness, log enrichment relative to wild type (log ratio); higher = more active; in vitro selection for triplet polymerase activity
Threshold check on polymerase ribozyme fitness (log ratio): at or above -4 gives fulfilled, strictly below gives not fulfilled.

- alteration: "C40A G61C A66U G128U U129A U133G"
  category label: "not fulfilled"
- alteration: "C8G A90G G113U G117A G127A"
  category label: "not fulfilled"
- alteration: "A5U C13U A16G G69C U92G C123A U132A"
  category label: "fulfilled"

Hi, just wondering whether C20G C62U C98U A111U G120C shows polymerase ribozyme fitness (log ratio) of -4 or higher.
not fulfilled

Hi, just wondering whether A50U A119U shows polymerase ribozyme fitness (log ratio) of -4 or higher.
fulfilled

Hi, just wondering whether G71C A90C shows polymerase ribozyme fitness (log ratio) of -4 or higher.
fulfilled

Hi, just wondering whether G36U G61A U78A shows polymerase ribozyme fitness (log ratio) of -4 or higher.
fulfilled

Hi, just wondering whether C22G G23A U125A G128U shows polymerase ribozyme fitness (log ratio) of -4 or higher.
not fulfilled

Hi, just wondering whether G19U A50U shows polymerase ribozyme fitness (log ratio) of -4 or higher.
fulfilled

Hi, just wondering whether G71C G120A shows polymerase ribozyme fitness (log ratio) of -4 or higher.
fulfilled

Hi, just wondering whether A43C A46U C101G C123U shows polymerase ribozyme fitness (log ratio) of -4 or higher.
not fulfilled

Hi, just wondering whether C11G A41C C56U G93A C123G G135U shows polymerase ribozyme fitness (log ratio) of -4 or higher.
fulfilled

Hi, just wondering whether C11U G36U shows polymerase ribozyme fitness (log ratio) of -4 or higher.
fulfilled

Hi, just wondering whether G10C A18U G93A U130C shows polymerase ribozyme fitness (log ratio) of -4 or higher.
fulfilled

Hi, just wondering whether G48C G51C G57U shows polymerase ribozyme fitness (log ratio) of -4 or higher.
fulfilled

Reference source for all entries: the RNAGym collection of RNA variant scans (doi:10.1073/pnas.2313332121)
